Values from patent US8207163B2

system-tested: dopamine D2S receptor (human recombinant expressed in CHO cells) (Homo sapiens, UniProt P14416)
Sequence (P14416 1-414 isoform P14416-2): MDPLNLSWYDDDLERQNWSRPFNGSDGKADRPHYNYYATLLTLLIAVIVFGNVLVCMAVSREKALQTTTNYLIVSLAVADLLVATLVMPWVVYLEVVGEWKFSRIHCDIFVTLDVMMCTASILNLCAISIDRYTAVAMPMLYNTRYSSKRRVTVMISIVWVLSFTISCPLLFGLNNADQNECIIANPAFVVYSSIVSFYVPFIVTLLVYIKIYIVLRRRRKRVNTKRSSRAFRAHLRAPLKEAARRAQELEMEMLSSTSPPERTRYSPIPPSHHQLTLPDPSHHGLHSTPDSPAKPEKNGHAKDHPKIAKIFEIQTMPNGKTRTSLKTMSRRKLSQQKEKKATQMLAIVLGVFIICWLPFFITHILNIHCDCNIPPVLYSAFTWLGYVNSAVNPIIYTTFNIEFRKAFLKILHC
protocol-summary: Dopamine, D2S (human recombinant) radioligand binding assay, [3H]Spiperone
Counter-ions that a name gives are not always drawn.
observed-property: Ki (nM)
Please state the figure in nM; there is no need to write the unit.

>  <compound>
CCOC(=O)C(C)(C)Oc1ccccc1N1CCN(CCCCOc2ccc3c(c2)NC(=O)CO3)CC1 [Compound 18c, hydrochloride]

>  <observed-property>
Ki

>  <val>
2.09

$$$$
>  <compound>
CCOC(=O)C(C)(C)CCOc1ccccc1N1CCN(CCCCOc2ccc3c(c2)NC(=O)CO3)CC1 [Compound 18b, hydrochloride]

>  <observed-property>
Ki

>  <val>
50.2

$$$$
>  <compound>
CCOC(=O)CCCOc1ccccc1N1CCN(CCCCOc2ccc3c(c2)NC(=O)CO3)CC1 [Compound 18a, hydrochloride]

>  <observed-property>
Ki

>  <val>
6.77

$$$$
>  <compound>
CCOC(=O)CN1C(=O)COc2ccc(OCCCCN3CCN(c4cccc(Cl)c4Cl)CC3)cc21 [Compound 28c, hydrochloride]

>  <observed-property>
Ki

>  <val>
15.5

$$$$

Q: Return the recorded Ki value; entry: O=C(CCCN1CCN(c2cccc(Cl)c2Cl)CC1)Nc1ccc2c(c1)NC(=O)CO2 [Compound 5b, hydrochloride]
Ans: 2.89
